tested on: Escherichia coli IAI1; experiment: fold change of Putrescine concentration vs plate DMSO controls (fold change (ratio)); higher = more amine produced, active = hit call of the paper (significant change in both replicates, either direction); details: incubation time: 27 h, anaerobic, 37 °C
Where a name gives a salt, the structure may show the parent alone.
# fold change of Putrescine concentration per record follows
When you answer, write just the number.

| molecule | fold change of Putrescine concentration |
| --- | --- |
| N[C@@H](Cc1ccc(O)c(O)c1)C(=O)O [Levodopa] (20 µM) | 1 |
| CNCCCN1c2ccccc2CCc2ccccc21 [Desipramine hydrochloride] (20 µM) | 1.01 |

*Q* Return reported fold change of Putrescine concentration. Input molecule: O=C(O)CCCC[C@@H]1SC[C@@H]2NC(=O)N[C@@H]21 [Biotin] (20 µM)
*A* 0.982

*Q* Return reported fold change of Putrescine concentration. Input molecule: Cc1cccc(C)c1NC(=O)CC12CCCN1CCC2 [Pilsicainide Hydrochloride] (20 µM)
*A* 1.05

*Q* Return reported fold change of Putrescine concentration. Input molecule: CN(C)C(=O)Nc1ccc(Cl)c(Cl)c1 (20 µM)
*A* 0.97

====

test system: Ruminococcus gnavus DSM 108212; experiment: fold change of 2-Phenylethylamine concentration vs plate DMSO controls (fold change (ratio)); higher = more amine produced, active = hit call of the paper (significant change in both replicates, either direction); details: incubation time: 27 h, anaerobic, 37 °C
Structures can show the parent of a compound that is named as a salt.
# fold change of 2-Phenylethylamine concentration per record follows
When you answer, write just the number.

Would you please look over these solved cases?
| molecule | target | val |
| --- | --- | --- |
| CCC(=O)O[C@]1(C(=O)SCF)[C@H](C)C[C@H]2[C@@H]3C[C@H](F)C4=CC(=O)C=C[C@]4(C)[C@@]3(F)[C@@H](O)C[C@@]21C [Fluticasone propionate] (20 µM) | Ruminococcus gnavus DSM 108212 | 0.931 |
| Clc1ccc(C(Cn2ccnc2)OCc2csc3c(Cl)cccc23)c(Cl)c1 (configuration not stated) [Sertaconazole nitrate] (20 µM) | Ruminococcus gnavus DSM 108212 | 0.591 |
| CC(=O)Nc1ccc(C(=O)O)cc1 [Acedoben] (20 µM) | Ruminococcus gnavus DSM 108212 | 1 |
| COc1ccc2[nH]cc(CCNC(C)=O)c2c1 [Melatonin] (20 µM) | Ruminococcus gnavus DSM 108212 | 0.98 |
| O=C(CO)[C@@H](O)[C@H](O)[C@@H](CO)O[C@H]1O[C@H](CO)[C@@H](O)[C@H](O)[C@H]1O [Leucrose] (50 µM) | Ruminococcus gnavus DSM 108212 | 0.968 |
| CN1CCN(c2c(F)cc3c(=O)c(C(=O)O)cn(CCF)c3c2F)CC1 [Fleroxacin] (20 µM) | Ruminococcus gnavus DSM 108212 | 1.15 |

*Q* Return reported fold change of 2-Phenylethylamine concentration. Input molecule: COCCCOc1cc(C[C@@H](C[C@H](N)[C@@H](O)C[C@H](C(=O)NCC(C)(C)C(N)=O)C(C)C)C(C)C)ccc1OC [Aliskiren hemifumarate] (20 µM)
*A* 1.05

*Q* Return reported fold change of 2-Phenylethylamine concentration. Input molecule: COc1ccc(CN2CCN(C(c3ccc(F)cc3)c3ccc(F)cc3)CC2)c(OC)c1OC [Lomerizine dihydrochloride] (20 µM)
*A* 0.87

*Q* Return reported fold change of 2-Phenylethylamine concentration. Input molecule: CN1CCN(CC(=O)N2c3ccccc3C(=O)Nc3cccnc32)CC1 [Pirenzepine dihydrochloride] (20 µM)
*A* 0.916

*Q* Return reported fold change of 2-Phenylethylamine concentration. Input molecule: COc1ccc(-c2cc(=O)c3c(O)cc(O[C@@H]4O[C@H](CO[C@@H]5O[C@@H](C)[C@H](O)[C@@H](O)[C@H]5O)[C@@H](O)[C@H](O)[C@H]4O)cc3o2)cc1O [Diosmin] (20 µM)
*A* 1

*Q* Return reported fold change of 2-Phenylethylamine concentration. Input molecule: CCC[C@@H]1C[C@@H](C(=O)N[C@@H]([C@H]2O[C@H](SC)[C@H](O)[C@@H](O)[C@H]2O)[C@@H](C)O)N(C)C1 [Lincomycin hydrochloride] (20 µM)
*A* 0.117

*Q* Return reported fold change of 2-Phenylethylamine concentration. Input molecule: NC(=O)[C@@H]1CCCN1C(=O)[C@H](Cc1c[nH]cn1)NC(=O)[C@@H]1CCC(=O)N1 [Thyrotropin-Releasing Hormone] (20 µM)
*A* 0.998

====

system: Ruminococcus gnavus DSM 108212; test: fold change of Tryptamine concentration vs plate DMSO controls (fold change (ratio)); higher = more amine produced, active = hit call of the paper (significant change in both replicates, either direction); settings: incubation time: 27 h, anaerobic, 37 °C
Where a name gives a salt, the structure may show the parent alone.
measurement kind: fold change of Tryptamine concentration
When you answer, write just the number.

Would you please look over these solved cases?
| compound | measurement kind | val |
| --- | --- | --- |
| O=C1c2ccccc2C(=O)C1c1ccccc1 [Phenindione] (20 µM) | fold change of Tryptamine concentration | 1.01 |
| CN1CCC(=C2c3ccccc3C=Cc3ccccc32)CC1 [Cyproheptadine hydrochloride] (20 µM) | fold change of Tryptamine concentration | 0.98 |
| COc1ccc2c(c1)N(C[C@H](C)CN(C)C)c1ccccc1S2 [Methotrimeprazine maleate salt] (20 µM) | fold change of Tryptamine concentration | 1.02 |

*Q* State measured fold change of Tryptamine concentration of the compound C[C@H](Cc1cc2c(c(C(N)=O)c1)N(CCCO)CC2)NCCOc1ccccc1OCC(F)(F)F [Silodosin] (20 µM) with Ruminococcus gnavus DSM 108212.
*A* 1.01

====

tested on: Klebsiella aerogenes DSM 30053; assay: growth (OD595) fold change vs plate DMSO controls (fold change (ratio)); higher = more growth; conditions: incubation time: 27 h, anaerobic, 37 °C
Structures can show the parent of a compound that is named as a salt.
Assign Yes to entries whose growth meets or exceeds 1; assign No to the rest.

Worked cases, answers included:
| compound | class name |
| --- | --- |
| COc1ccc2[nH]cc(CCNC(C)=O)c2c1 [Melatonin] (20 µM) | Yes |
| CS(=O)(=O)Nc1ccc([N+](=O)[O-])cc1Oc1ccccc1 [Nimesulide] (20 µM) | Yes |
| OC(CCN1CCCCC1)(c1ccccc1)C1CC2C=CC1C2 (stereo not drawn) [Biperiden hydrochloride] (20 µM) | Yes |
| C[C@@H]1C[C@H]2[C@@H]3CCC4=CC(=O)C=C[C@]4(C)[C@@]3(Cl)[C@@H](O)C[C@]2(C)[C@@]1(OC(=O)c1ccco1)C(=O)CCl [Mometasone furoate] (20 µM) | Yes |

Consider now this further compound.
*Q* Does growth meet or surpass 1 for Cc1cc(/C=C/c2ccc3cc(N(C)C)ccc3[n+]2C)c(C)n1-c1ccccc1 [Pyrvinium pamoate] (20 µM) ?
*A* No

====

tested on: Klebsiella aerogenes DSM 30053; experiment: fold change of Putrescine concentration vs plate DMSO controls (fold change (ratio)); higher = more amine produced, active = hit call of the paper (significant change in both replicates, either direction); details: incubation time: 27 h, anaerobic, 37 °C
# fold change of Putrescine concentration per record follows
When you answer, write just the number.

Would you please look over these solved cases?
| compound | val |
| --- | --- |
| C#C[C@]1(OC(C)=O)CC[C@H]2[C@@H]3CCC4=CC(=NO)CC[C@@H]4[C@H]3CC[C@@]21CC (mixture of isomers) [Norgestimate] (20 µM) | 0.985 |
| COc1ccc(-c2cc(=S)ss2)cc1 [Anethole-trithione] (20 µM) | 0.972 |
| NCCCCCC(=O)O [Aminocaproic acid] (20 µM) | 0.996 |
| CC(C)Cc1ccc(C(C)C(=O)OCc2ccccn2)cc1 (stereo not given) [Ibuprofen Piconol] (20 µM) | 1.01 |
| CC(=O)Oc1c(C)cccc1C(=O)O [Cresopirine] (20 µM) | 1.02 |
| CCC(=O)O[C@]1(C(=O)CCl)[C@@H](C)C[C@H]2[C@@H]3CCC4=CC(=O)C=C[C@]4(C)[C@@]3(F)[C@@H](O)C[C@@]21C [Clobetasol propionate] (20 µM) | 1.02 |

Shift focus to the following entry.
*Q* Return reported fold change of Putrescine concentration. Input compound: CCCCC(C)(O)C/C=C/[C@H]1[C@H](O)CC(=O)[C@@H]1CCCCCCC(=O)OC (mixture of isomers) [Misoprostol] (20 µM)
*A* 1.02

====

# growth per record follows
system: Ruminococcus gnavus DSM 108212; assay: growth (OD595) fold change vs plate DMSO controls (fold change (ratio)); higher = more growth; details: incubation time: 27 h, anaerobic, 37 °C
Counter-ions that a name gives are not always drawn.
When you answer, write just the number.

| molecule | val |
| --- | --- |
| Cc1c(N(C)CS(=O)(=O)O)c(=O)n(-c2ccccc2)n1C [Dipyrone sodium salt] (20 µM) | 1.13 |
| CN1CCC(=C2c3ccccc3Sc3ccccc32)CC1 [Pimethixene maleate] (20 µM) | 1.26 |
| Cc1cccc(CN2CCN(C(c3ccccc3)c3ccc(Cl)cc3)CC2)c1 (configuration not stated) [Meclozine dihydrochloride] (20 µM) | 0.705 |

*Q* Return reported growth. Input molecule: C#C[C@]1(O)CC[C@H]2[C@@H]3CCC4=CC(=O)CC[C@@H]4[C@H]3CC[C@@]21C [Norethindrone] (20 µM)
*A* 1.22

*Q* Return reported growth. Input molecule: CC(C)C[C@H](NC(=O)[C@@H](O)[C@H](N)Cc1ccccc1)C(=O)O [Ubenimex] (20 µM)
*A* 0.332
